These entries and their values trace back to patent US20250368678A1.

- assayDetails: In vitro liver microsomal stability assay, human
- Type: in vitro ADME
- statedConditions: Human liver microsomes; read-out: CLint(mic)
Entries and their microsomal CLint at 1 µM
readoutLabel: microsomal CLint at 1 µM (µL/min/mg)

# molecule, readoutLabel, readoutUnit, comparisonSign, assayValue
rows = [
    ("C[C@@]1(O)CC[C@H]2[C@H](CC[C@@H]3[C@@H]2CC[C@]2(C)[C@@H](C(=O)Cn4cnn(-c5ccnc(OC(F)(F)F)c5)c4=O)CC[C@@H]32)C1 [Compound 38]", "microsomal CLint at 1 µM", "µL/min/mg", "<", 7.5),
    ("C[C@@]1(O)CC[C@H]2[C@H](CC[C@@H]3[C@@H]2CC[C@]2(C)[C@@H](C(=O)Cn4cnn(-c5cccnc5)c4=O)CC[C@@H]32)C1 [Compound 2]", "microsomal CLint at 1 µM", "µL/min/mg", "=", 57),
    ("C[C@@]1(O)CC[C@H]2[C@H](CC[C@@H]3[C@@H]2CC[C@]2(C)[C@@H](C(=O)Cn4cnn(-c5ccnc(F)c5)c4=O)CC[C@@H]32)C1 [Compound 21]", "microsomal CLint at 1 µM", "µL/min/mg", "=", 26),
    ("C[C@@]1(O)CC[C@H]2[C@H](CC[C@@H]3[C@@H]2CC[C@]2(C)[C@@H](C(=O)Cn4ccn(-c5cccc(F)c5)c4=O)CC[C@@H]32)C1 [Compound 11]", "microsomal CLint at 1 µM", "µL/min/mg", "=", 70),
    ("C[C@@]1(O)CC[C@H]2[C@H](CC[C@@H]3[C@@H]2CC[C@]2(C)[C@@H](C(=O)Cn4cnn(-c5ccnc(OCC(F)(F)F)c5)c4=O)CC[C@@H]32)C1 [Compound 39]", "microsomal CLint at 1 µM", "µL/min/mg", "=", 9),
]

----------
- assayDetails: Pharmacokinetic study in SD rats (plasma and brain)
- Format: in vivo
- statedConditions: male, rat, po, 24.4 umol/kg, IG 24.4 μmol/kg, plasma
readoutLabel: AUC(0-inf) (µM·h)

# molSmiles, readoutLabel, assayValue
rows = [
    ("C[C@@]1(O)CC[C@H]2[C@H](CC[C@@H]3[C@@H]2CC[C@]2(C)[C@@H](C(=O)Cn4cnn(-c5cc(F)nc(F)c5)c4=O)CC[C@@H]32)C1", "AUC(0-inf)", 35.1),
]

----------
T1/2: recorded values
- assayDetails: In vitro liver microsomal stability assay, rat
- Type: in vitro ADME
- statedConditions: Rat liver microsomes

# molecule, T1/2 / min
measured = [
    ("C[C@@]1(O)CC[C@H]2[C@H](CC[C@@H]3[C@@H]2CC[C@]2(C)[C@@H](C(=O)Cn4cnn(CCOC(F)(F)F)c4=O)CC[C@@H]32)C1 [Compound 43]", 23),
    ("C[C@@]1(O)CC[C@H]2[C@H](CC[C@@H]3[C@@H]2CC[C@]2(C)[C@@H](C(=O)Cn4cnn(-c5cccnc5)c4=O)CC[C@@H]32)C1 [Compound 2]", 11.3),
    ("C[C@@]1(O)CC[C@H]2[C@H](CC[C@@H]3[C@@H]2CC[C@]2(C)[C@@H](C(=O)Cn4ncn(-c5ccc(F)cc5)c4=O)CC[C@@H]32)C1 [Compound 9]", 10.3),
]

----------
Each entry below lists one item and its recorded microsomal CLint at 1 µM value.
- assayDetails: In vitro liver microsomal stability assay, rat
- Format: in vitro ADME
- statedConditions: Rat liver microsomes; read-out: CLint(mic)

# compound, readoutUnit, microsomal CLint at 1 µM
data = [
    ("COc1cccc(-n2ncn(CC(=O)[C@H]3CC[C@H]4[C@@H]5CC[C@@H]6C[C@](C)(O)CC[C@@H]6[C@H]5CC[C@]34C)c2=O)c1 [Compound 5]", "µL/min/mg", 98),
    ("C[C@@]1(O)CC[C@H]2[C@H](CC[C@@H]3[C@@H]2CC[C@]2(C)[C@@H](C(=O)Cn4cnn(-c5cccnc5)c4=O)CC[C@@H]32)C1 [Compound 2]", "µL/min/mg", 104),
    ("C[C@@]1(O)CC[C@H]2[C@H](CC[C@@H]3[C@@H]2CC[C@]2(C)[C@@H](C(=O)Cn4cnn(C5CCCCC5)c4=O)CC[C@@H]32)C1 [Compound 30]", "µL/min/mg", 183),
    ("C[C@@]1(O)CC[C@H]2[C@H](CC[C@@H]3[C@@H]2CC[C@]2(C)[C@@H](C(=O)Cn4cnn(-c5ccc(F)cc5)c4=O)CC[C@@H]32)C1 [Compound 4]", "µL/min/mg", 51),
    ("C[C@@]1(O)CC[C@H]2[C@H](CC[C@@H]3[C@@H]2CC[C@]2(C)[C@@H](C(=O)Cn4cnn(-c5cc(F)cc(C#N)c5)c4=O)CC[C@@H]32)C1 [Compound 44]", "µL/min/mg", 15),
    ("Cn1ncn(CC(=O)[C@H]2CC[C@H]3[C@@H]4CC[C@@H]5C[C@](C)(O)CC[C@@H]5[C@H]4CC[C@]23C)c1=O [Compound 6]", "µL/min/mg", 65),
    ("C[C@@]1(O)CC[C@H]2[C@H](CC[C@@H]3[C@@H]2CC[C@]2(C)[C@@H](C(=O)Cn4cnn(-c5ccnc(OC(F)(F)F)c5)c4=O)CC[C@@H]32)C1 [Compound 38]", "µL/min/mg", 7),
    ("C[C@@]1(O)CC[C@H]2[C@H](CC[C@@H]3[C@@H]2CC[C@]2(C)[C@@H](C(=O)Cn4cnn(-c5cc(Cl)ccn5)c4=O)CC[C@@H]32)C1 [Compound 26]", "µL/min/mg", 67),
    ("COCCn1ncn(CC(=O)[C@H]2CC[C@H]3[C@@H]4CC[C@@H]5C[C@](C)(O)CC[C@@H]5[C@H]4CC[C@]23C)c1=O [Compound 31]", "µL/min/mg", 130),
    ("C[C@@]1(O)CC[C@H]2[C@H](CC[C@@H]3[C@@H]2CC[C@]2(C)[C@@H](C(=O)Cn4cnn(-c5cc(F)nc(F)c5)c4=O)CC[C@@H]32)C1 [Compound 41]", "µL/min/mg", 13),
    ("C[C@@]1(O)CC[C@H]2[C@H](CC[C@@H]3[C@@H]2CC[C@]2(C)[C@@H](C(=O)Cn4cnn(-c5cccc(C(N)=O)c5)c4=O)CC[C@@H]32)C1 [Compound 19]", "µL/min/mg", 79),
]

----------
- assayDetails: In vitro liver microsomal stability assay, human
- Assay type: in vitro ADME
- statedConditions: Human liver microsomes 0.5 mg/mL, NADPH
Below: a set of entries, each annotated with reported Remaining amount % at 60 min.

# molSmiles, Remaining amount % at 60 min, %
data = [
    ("Cn1ncn(CC(=O)[C@H]2CC[C@H]3[C@@H]4CC[C@@H]5C[C@](C)(O)CC[C@@H]5[C@H]4CC[C@]23C)c1=O", 72.92),
    ("C[C@@]1(O)CC[C@H]2[C@H](CC[C@@H]3[C@@H]2CC[C@]2(C)[C@@H](C(=O)Cn4cnn(-c5cccc(C#N)c5)c4=O)CC[C@@H]32)C1", 79.9),
    ("C[C@@]1(O)CC[C@H]2[C@H](CC[C@@H]3[C@@H]2CC[C@]2(C)[C@@H](C(=O)Cn4ccn(-c5cccc(F)c5)c4=O)CC[C@@H]32)C1", 28.02),
    ("C[C@@]1(O)CC[C@H]2[C@H](CC[C@@H]3[C@@H]2CC[C@]2(C)[C@@H](C(=O)Cn4cnn(-c5nccs5)c4=O)CC[C@@H]32)C1", 66.8),
    ("C[C@@]1(O)CC[C@H]2[C@H](CC[C@@H]3[C@@H]2CC[C@]2(C)[C@@H](C(=O)Cn4cnn(C5CCCCC5)c4=O)CC[C@@H]32)C1", 9.5),
    ("C[C@@]1(O)CC[C@H]2[C@H](CC[C@@H]3[C@@H]2CC[C@]2(C)[C@@H](C(=O)Cn4cnn(-c5cccnc5)c4=O)CC[C@@H]32)C1", 18.57),
]

----------
CLint scaled at 1 µM values, listed per item
- assayDetails: In vitro liver microsomal stability assay, human
- Format: in vitro ADME
- statedConditions: Human liver microsomes
readoutLabel: CLint scaled at 1 µM (mL/min/kg)

# molSmiles, readoutLabel, assayValue
measured = [
    ("CC(C)(C)n1ncn(CC(=O)[C@H]2CC[C@H]3[C@@H]4CC[C@@H]5C[C@](C)(O)CC[C@@H]5[C@H]4CC[C@]23C)c1=O", "CLint scaled at 1 µM", 22),
    ("C[C@@]1(O)CC[C@H]2[C@H](CC[C@@H]3[C@@H]2CC[C@]2(C)[C@@H](C(=O)Cn4cnn(-c5cc(F)ccc5F)c4=O)CC[C@@H]32)C1", "CLint scaled at 1 µM", 17),
    ("C[C@@]1(O)CC[C@H]2[C@H](CC[C@@H]3[C@@H]2CC[C@]2(C)[C@@H](C(=O)Cn4cnn(-c5nccs5)c4=O)CC[C@@H]32)C1", "CLint scaled at 1 µM", 19),
]
